# GI50 per record follows
- Tested on: LOX IMVI melanoma
- assay-name: NCI tumour cell line growth inhibition, 48 h
test-readout: GI50

# compound, observed-value
rows = [
    ("CCOC(=O)c1ccc(NC(=O)c2cccc(NC3=C(Cl)C(=O)N(Cc4ccccc4)C3=O)c2)cc1", "60.3 µM"),
    ("Cc1nn(-c2ccccc2)c2nc(C)n(-c3ccc(Br)cc3)c(=O)c12", "0.51 µM"),
    ("C=CCN1C(=O)[C@]2(SC1=S)[C@H](c1cccc(Cl)c1)CN(C)[C@]21C(=O)NC2C=CC(Cl)=C[C@H]21 (stereo partly drawn)", "1.73 µM"),
    ("CCCCC[C@H]1C/C=C2/C(=O)C(Cl)=C[C@@H]2C/C=C\\CCCC(=O)O1", "0.126 µM"),
    ("C[C@@H](Oc1cc(-c2cnn(C3CCNCC3)c2)cnc1N)c1c(Cl)cc(F)cc1Cl", "1.37 µM"),
    ("C1=C\\CCCCN2CC[C@H]3[C@H](CCCC/C=C\\CCCN4C[C@@H](CCCCC/1)C[C@@H]3C4)C2", "4.3 µM"),
    ("Cc1ccc(C2C3Cc4ccccc4C3=NN2c2ccc(S(=O)(=O)NC(=O)Nc3ccccc3)cc2)cc1 (stereo not drawn)", "13.5 µM"),
    ("CC(=O)O[C@H]1CC[C@]2(C)C3C(=O)C[C@]4(C)[C@@H](C(C)CCC(=O)O)CC[C@@]4(C)[C@@H]3CC[C@H]2C1(C)C (stereo partly drawn)", "7.64 µM"),
]

----------
- System: OVCAR-4 ovarian
- assay-name: NCI tumour cell line growth inhibition, 48 h

# compound, TGI
records = [
    ("CCOC(=O)C1=NNC(C(=O)c2ccccc2)C1c1ccccc1 (configuration not stated)", "> 38.3 µM"),
    ("Cc1nn(C(=O)c2ccc(Cl)cc2)c2c1C(c1ccc(Cl)cc1)SC(N)=N2 (configuration not stated)", "> 10 µM"),
    ("N#CCCN(CCC#N)c1ccc(/C=C(/NC(=O)Nc2ccccc2Cl)NC(=O)c2cc([N+](=O)[O-])ccc2Cl)cc1", "> 100 µM"),
    ("COc1ccc(C(Nc2ccccn2)c2cc(C(C)(C)C)cc(C(C)(C)C)c2O)cc1 (configuration not stated)", "> 100 µM"),
    ("C=C1C(C(=O)O)C1C(=O)O (configuration not stated)", "> 100 µM"),
    ("CC(C)=CCOc1ccc(-c2coc3cc4c(c(O)c3c2=O)C=CC(C)(C)O4)cc1", "80 µM"),
    ("Nc1no[n+]([O-])c1-c1nnc2c(n1)-c1ccccc1C2=O", "2.74 µM"),
    ("Cc1cn2c(/C=C3\\C(=O)N(C)c4ccc(Cl)cc43)c(C)nc2s1", "91 µM"),
    ("COc1cc2c(cc1O)C(=O)O[C@@H]1CC=C3CCN(C)[C@H]3[C@H]21", "> 25 µM"),
    ("O=C(O)CCSC(=O)Nc1ccccc1", "> 100 µM"),
    ("CSc1cc(C(C)(C)C)ccc1C(O)c1ccc(C(C)(C)C)cc1SC", "22.9 µM"),
    ("COC1(OC)C2C=CC1C([C@](C)(N)CO)C2 (some centres not stated)", "> 100 µM"),
    ("c1ccc2c(c1)[nH]c1c3ccccc3sc21", "> 100 µM"),
    ("CCC(C(=O)[C@@H](C)[C@@H](O)[C@H](C)[C@@H]1O[C@@H]([C@@H](CC)C(=O)ONC(=O)c2ccccc2)CC[C@@H]1C)[C@H]1O[C@]2(C=CC(=O)[C@]3(CC[C@@](C)([C@H]4CC[C@](O)(CC)[C@H](C)O4)O3)O2)[C@H](C)C[C@@H]1C (some centres not stated)", "> 40.1 µM"),
    ("COc1cc2c(cc1OC)[C@H]1C(COC(=O)Nc3ccccc3)CN1CC2 (some centres not stated)", "> 100 µM"),
    ("COc1ccc2[nH]c3c(O)c(-c4c(C)cc5c([nH]c6ccc(OC)cc65)c4O)c(C)cc3c2c1", "7.22 µM"),
    ("NCCCNc1nc2ccccc2c2c(=O)c3cc(F)cc(Cl)c3sc12", "3.63 µM"),
    ("CC1N=C(c2ccccc2)OC1=O (configuration not stated)", "> 100 µM"),
    ("COC(=O)[C@H](C)N(C)C(=O)[C@H](C)N1[C@@H](c2ccccc2)COC1(C)C", "> 100 µM"),
    ("Cc1ccc(NC2=CC(=O)C(=O)c3ccccc32)cc1", "2.72 µM"),
    ("O=c1[nH]c(=O)n(C2OC(CO)C(O)C2O)cc1F (configuration not stated)", "17.7 µM"),
    ("CCOC(=O)c1csc(-c2cn(C)c3c2C(=O)C(OC)=CC3=O)n1", "> 100 µM"),
]
